- MEASUREMENT TARGET: T1, Rnd1 GTPase (residues 5-200), loaded with GMPPNP (UniProt Q92730 5-200)
- T1 sequence (looked up): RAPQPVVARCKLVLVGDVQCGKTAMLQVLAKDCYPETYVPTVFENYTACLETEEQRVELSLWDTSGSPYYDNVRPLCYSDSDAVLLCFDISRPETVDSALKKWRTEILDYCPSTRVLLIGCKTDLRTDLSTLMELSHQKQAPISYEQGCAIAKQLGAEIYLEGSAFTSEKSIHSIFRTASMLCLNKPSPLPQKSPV
- PROTOCOL DESCRIPTION: ITC
REPORTED PROPERTY: dH (kcal/mol)

BINDER: plexin-B1 Rho GTPase binding domain (RBD), residues 1746-1852 (domain or fragment, human, UniProt O43157 1746-1852, looked up) YRPLTLNALLAVGPGAGEAQGVPVKVLDCDTISQAKEKMLDQLYKGVPLTQRPDPRTLDVEWRSGVAGHLILSDEDVTSEVQGLWRRLNTLQHYKVPDGATVALVPC
ASSAY RESULT: -6.7

1. plexin-B1 RBD L1815Y (domain or fragment) YRPLTLNALLAVGPGAGEAQGVPVKVLDCDTISQAKEKMLDQLYKGVPLTQRPDPRTLDVEWRSGVAGHYILSDEDVTSEVQGLWRRLNTLQHYKVPDGATVALVPC
2. plexin-C1 RBD T1264V/R1265V (domain or fragment) TVALNVVFEKIPENESADVCRNISVNVLDCDTIGQAKEKIFQAFLSKNGSPYGLQLNEIGLELQMGVVQKELLDIDSSSVILEDGITKLNTIGHYEISNGSTIKVFKK
3. plexin-D1 RBD S1614V/T1615A (domain or fragment) AKPRNLNVSFQGCGMDSLSVRAMDTDTLTQVKEKILEAFCKNVPYSQWPRAEDVDLEWFASVAQSYILRDLDDTSVVEDGRKKLNTLAHYKIPEGASLAMSLIDKKDNTLGRVKDLDTEKYFHLVL
Input: Exam item: list the entries in increasing order of dH. Output spec: labels arranged per the requested ranking.
Output: 2, 1, 3
